Tested on: UACC-257
test_details: NCI tumour cell line growth inhibition, 48 h
Activity calls are given as the source filed them. No stated cut-off is given here; in the data, active = GI50 up to about 1.1 µM and inactive = higher.
property_measured: GI50

In [3]: df
Out[3]:
                                    molecule  property_measured  observed_measurement
 0  COC(=O)c1c(C)cccc1C1CN=NC12Cc1ccccc1C2=O (configuration not stated)               GI50    36.1 µM (inactive)
 1  CSc1nc2c(ncn2C2OCC(O)C(O)C2O)c(=O)n1C (configuration not stated)               GI50   > 100 µM (inactive)
 2          COc1cccc(CCCNC(=O)Cc2ccccc2CO)c1               GI50   > 100 µM (inactive)
 3  CC(C)C(Sc1nc(N)nc2nc[nH]c12)C(=O)O (configuration not stated)               GI50   > 100 µM (inactive)
 4  O=C1CSC(c2ccccc2O)N1c1nc2cc3sc(N4C(=O)CSC4c4ccccc4O)nc3cc2s1 (configuration not stated)               GI50  > 36.3 µM (inactive)
 5  CCOC(=O)c1nc2ccc(C(F)(F)F)cc2nc1NCc1ccc(OC)cc1               GI50      74 µM (inactive)
 6  Cc1cc2nc(N3C(=O)/C(=C/c4ccc(N(C)C)cc4)N=C3c3ccccc3)sc2cc1C               GI50    27.2 µM (inactive)
 7  COc1ccc2c(ccc3c(COC(=O)NC(C)C)c(COC(=O)NC(C)C)n(C)c32)c1               GI50    12.7 µM (inactive)
 8  COc1ccc(C2SCC(=O)N2c2ccc(-n3c(-c4ccccc4)nc4ccccc4c3=O)cc2)cc1 (configuration not stated)               GI50   > 100 µM (inactive)
 9  COC(=O)c1ccc(NCC2=C(Br)C(=O)C=CC2=O)cc1Cl               GI50    23.8 µM (inactive)
10                   N#Cc1cccc2c1Nc1ccccc1S2               GI50   > 100 µM (inactive)
11  Cc1c(C)c(S(=O)(=O)N(CCCCCCN)OCCCN)c(C)c2c1OC(C)(C)CC2               GI50      11 µM (inactive)
12  COC(=O)C1(c2ccc(N(C)C)cc2OC)CCCN(C(=O)Oc2ccccc2[N+](=O)[O-])CCc2c1[nH]c1ccccc21 (configuration not stated)               GI50   > 100 µM (inactive)
13  C=C1CC(Cn2ccc(=O)[nH]c2=O)(c2ccc(Cl)cc2)OC1=O (configuration not stated)               GI50    3.58 µM (inactive)
14        CSc1nc(=S)[nH]c2c1c(C)nn2-c1ccccc1               GI50    20.5 µM (inactive)
15  CC1=C(C(=O)NCc2ccccc2)C(/C=C/c2ccccc2)C(C(=O)NCc2ccccc2)=C(C)N1               GI50   > 100 µM (inactive)
16              N#C/C(=C\c1cccc(O)c1O)C(N)=O               GI50    39.5 µM (inactive)
17  O=C1C(N2CCCC2)=CC(=O)c2c(O)c(N3CCCC3)c(Cl)c(O)c21               GI50    > 10 µM (inactive)
18  COC1C=CC(O)C(CO)O1 (configuration not stated)               GI50   > 100 µM (inactive)
19    COC(=O)c1ccc(NC(=O)O/N=C(\Cl)C(C)C)cc1               GI50    15.2 µM (inactive)
20  Cc1cccc(Nc2nc(NNC(=O)Cc3ccccc3)nc(NNC(=O)c3ccncc3)n2)c1               GI50    > 10 µM (inactive)
21  CCSc1nc(N)c2c(-c3ccc(OC)c(OC)c3)c3c(nc2n1)CCCC3               GI50   > 100 µM (inactive)
22       NCCCN(CCCN)CCc1cn(C(=O)c2ccccc2)cn1               GI50     9.2 µM (inactive)
23  Cc1cn(C2CC(n3cncn3)C(C(C)O)O2)c(=O)[nH]c1=O (configuration not stated)               GI50   > 100 µM (inactive)
24  O=C(CCC1CCCCN1)Nc1ccc2c(c1)C(=O)c1ccc(NC(=O)CCN3CCCCC3)cc1C2=O (configuration not stated)               GI50    1.44 µM (inactive)
25  O=c1ccn(CC2(CO)CC(Cc3ccccc3)C2)c(=O)[nH]1 (configuration not stated)               GI50   > 100 µM (inactive)
26             Cn1cnnc1SC(F)(F)c1nc2ccccc2o1               GI50   > 100 µM (inactive)
27  C(=N\NC1=NCCCN1)/c1ccc(-c2cn3cc(/C=N/NC4=NCCCN4)ccc3n2)cc1               GI50   > 100 µM (inactive)
28  CCCCOC(=O)NC(=O)c1cn(CCCOC(=O)CCCCCCCCC(=O)OCCCn2cc(C(=O)NC(=O)OCCCC)c(=O)[nH]c2=O)c(=O)[nH]c1=O               GI50   > 100 µM (inactive)
29              Brc1ccccc2cc(-c3ccccc3)nc1-2               GI50    5.06 µM (inactive)
30  COc1cc2c(c(OC)c1OC)C(=O)[C@@H]1[C@H]2N1C(=O)NCCCl               GI50    79.8 µM (inactive)
31  COCOc1ccc(C(=O)C(C)c2ccc(OCOC)cc2OCOC)c(O)c1 (configuration not stated)               GI50    56.4 µM (inactive)
32  COc1ccc(C2=NN(C(=O)COc3ccc(Cl)cc3)C(O)(c3ccc(Cl)cc3)C2)cc1 (configuration not stated)               GI50   > 100 µM (inactive)
33  N#CC1=C(S)N(C2OC(CO)C(O)C(O)C2O)C(c2ccccc2)=CC1c1cccs1 (configuration not stated)               GI50    21.7 µM (inactive)
34                 NC(=S)N/N=C1\CCc2ccccc2C1               GI50   > 100 µM (inactive)
35     O=C(c1ccccc1)N1CCc2c([nH]c3ccccc23)C1               GI50    28.7 µM (inactive)
36  N#CC(c1ccc(Cl)cc1)c1cccc(C(C#N)c2ccc(Cl)cc2)n1 (configuration not stated)               GI50    14.1 µM (inactive)
37  Cc1ccc(S(=O)(=O)NC(=O)C#CCOC2CCCCO2)cc1 (configuration not stated)               GI50   > 100 µM (inactive)
38  Nc1ncc(N)c(NCC2(CO)CC(CCc3ccccc3)C2)n1 (configuration not stated)               GI50    8.85 µM (inactive)
39  COc1cc(/C=C2\NC(=O)C(Cc3cc(OC)c(OC)c(C)c3OC)N(C(C)=O)C2=O)c(OC)c(C)c1OC (configuration not stated)               GI50   > 100 µM (inactive)
40  CCCCCCCc1ccc(-c2nnc(/N=N/c3ccc(OCCCCC)cc3)s2)s1               GI50   > 100 µM (inactive)
41  COC(=O)C(=C/c1ccc(OC)cc1)/C(C(=O)O)=C(/C)c1ccccc1               GI50   > 100 µM (inactive)
